- method-summary: Phase 1 study of a single oral dose of voxelotor in subjects with hepatic impairment: whole blood and plasma PK
- Format: in vivo, human
- condition-info: human, in vivo; plasma; mild hepatic impairment; 1500 mg single oral dose; read-out: t1/2, mean (converted)
result-type: half-life (h)
Respond with the bare value in h.

## Input Fill in half-life for record CC(C)n1nccc1-c1ncccc1COc1cccc(O)c1C=O [voxelotor]
## Output 71.4

###

- method-summary: Phase 1 study of a single oral dose of voxelotor in subjects with hepatic impairment: whole blood and plasma PK
- Assay type: in vivo, human
- condition-info: human, whole blood, po, 1500 mg, whole blood; normal hepatic function; 1500 mg single oral dose; read-out: Vz/F, GM (converted)
result-type: Vd/F (L)
The figure you give is taken to be in L; do not add the unit.

## Input Item CC(C)n1nccc1-c1ncccc1COc1cccc(O)c1C=O [voxelotor] : provide Vd/F
## Output 19.6

###

- method-summary: Phase 1 study of a single oral dose of voxelotor in subjects with hepatic impairment: whole blood and plasma PK
- Format: in vivo, human
- condition-info: human, plasma, oral, 1500 mg, plasma; mild hepatic impairment (Test); 1500 mg; read-out: Cmax, Geometric LS Mean
result-type: Cmax

## Input Specify measured Cmax for `CC(C)n1nccc1-c1ncccc1COc1cccc(O)c1C=O` .
## Output 2360 ng/mL

###

- method-summary: Phase 1 study of a single oral dose of voxelotor in subjects with hepatic impairment: whole blood and plasma PK
- Assay type: in vivo, human
- condition-info: human, plasma, po, 600 mg, plasma; severe hepatic impairment; 600 mg single oral dose; read-out: tmax, median (converted)
result-type: Tmax

## Input Please report Tmax for the following compound: CC(C)n1nccc1-c1ncccc1COc1cccc(O)c1C=O [voxelotor]
## Output 4 h

###

- method-summary: Phase 1 study of a single oral dose of voxelotor in subjects with hepatic impairment: whole blood and plasma PK
- Format: in vivo, human
- condition-info: human, plasma, po, 1500 mg, plasma; mild hepatic impairment; 1500 mg single oral dose; read-out: Cmax, GM (converted)
- Method: A Phase 1, open-label study was performed to characterize pharmacokinetics (PK) and safety of a single oral dose of voxelotor in subjects with hepatic impairment. […] Adverse events and concomitant medication use were monitored throughout the study. […] Whole blood and plasma concentrations of voxelotor were determined using validated assays. […] The following PK parameters were determined. […] The lower limit of assay quantitation for voxelotor was 10.0 ng/mL for whole blood and 5.00 ng/mL in plasma.
result-type: Cmax (ng/mL)
Value expressed in ng/mL; do not type the unit.

## Input Indicate its recorded Cmax; the molecule in question is CC(C)n1nccc1-c1ncccc1COc1cccc(O)c1C=O [voxelotor]
## Output 2390

###

- method-summary: Phase 1 study of a single oral dose of voxelotor in subjects with hepatic impairment: whole blood and plasma PK
- Format: in vivo, human
- condition-info: human, plasma, po, 1500 mg, plasma; moderate hepatic impairment; 1500 mg single oral dose; read-out: AUC0-96, GM (converted)
result-type: AUC(0-t) (µg·h/mL)
Report the value in µg·h/mL with no unit label.

## Input Consider the molecule CC(C)n1nccc1-c1ncccc1COc1cccc(O)c1C=O [voxelotor] and give its recorded AUC(0-t).
## Output 146

###

- method-summary: Phase 1 study of a single oral dose of voxelotor in subjects with hepatic impairment: whole blood and plasma PK
- Assay type: in vivo, human
- condition-info: human, plasma, oral, 1500 mg, plasma; moderate hepatic impairment (Test); 1500 mg; read-out: Cmax, Geometric LS Mean
result-type: Cmax (ng/mL)
Form entry: value (ng/mL) — number only.

## Input Query Cmax for CC(C)n1nccc1-c1ncccc1COc1cccc(O)c1C=O [voxelotor]
## Output 3030

###

- method-summary: Phase 1 study of a single oral dose of voxelotor in subjects with hepatic impairment: whole blood and plasma PK
- Format: in vivo, human
- condition-info: human, whole blood, po, 1500 mg, whole blood; mild hepatic impairment; 1500 mg single oral dose; read-out: AUCt, GM (converted)
- Description: A Phase 1, open-label study was performed to characterize pharmacokinetics (PK) and safety of a single oral dose of voxelotor in subjects with hepatic impairment. […] Adverse events and concomitant medication use were monitored throughout the study. […] Whole blood and plasma concentrations of voxelotor were determined using validated assays. […] The following PK parameters were determined. […] The lower limit of assay quantitation for voxelotor was 10.0 ng/mL for whole blood and 5.00 ng/mL in plasma.
result-type: AUC(0-t) (µg·h/mL)
Write the number in µg·h/mL without appending the unit.

## Input Give me measured AUC(0-t), please, for this compound: `CC(C)n1nccc1-c1ncccc1COc1cccc(O)c1C=O`
## Output 8190

###

- method-summary: Phase 1 study of a single oral dose of voxelotor in subjects with hepatic impairment: whole blood and plasma PK
- Format: in vivo, human
- condition-info: human, whole blood, po, 1500 mg, whole blood; moderate hepatic impairment; 1500 mg single oral dose; read-out: AUCt, GM (converted)
result-type: AUC(0-t) (µg·h/mL)
Supply the numeric figure in µg·h/mL, leaving out any unit text.

## Input Specify AUC(0-t) for `CC(C)n1nccc1-c1ncccc1COc1cccc(O)c1C=O` and stop.
## Output 8320

###

- method-summary: Phase 1 study of a single oral dose of voxelotor in subjects with hepatic impairment: whole blood and plasma PK
- Type: in vivo, human
- condition-info: human, plasma, po, 600 mg, plasma; severe hepatic impairment; 600 mg single oral dose, adjusted for dose to 1500 mg; read-out: Cmax, GM (converted)
result-type: Cmax (ng/mL)
# number only, unit ng/mL dropped from output

## Input Could you please provide reported Cmax for `CC(C)n1nccc1-c1ncccc1COc1cccc(O)c1C=O` ? Thanks!
## Output 2960

###

- method-summary: Clinical pharmacokinetics of voxelotor in plasma, whole blood and RBCs
- Type: in vivo, human
- condition-info: human, oral, 1500 mg; plasma; Voxelotor 1,500 mg; read-out: Cmax, Geometric Mean (% CV)
result-type: Cmax
Record the result as a number with its unit.

## Input Fill in reported Cmax for this entry: CC(C)n1nccc1-c1ncccc1COc1cccc(O)c1C=O [voxelotor]
## Output 12600 ng/mL

###

- method-summary: Phase 1 study of a single oral dose of voxelotor in subjects with hepatic impairment: whole blood and plasma PK
- Assay type: in vivo, human
- condition-info: human, whole blood, po, 1500 mg, whole blood; moderate hepatic impairment; 1500 mg single oral dose; read-out: tmax, median (converted)
- Description: A Phase 1, open-label study was performed to characterize pharmacokinetics (PK) and safety of a single oral dose of voxelotor in subjects with hepatic impairment. […] Adverse events and concomitant medication use were monitored throughout the study. […] Whole blood and plasma concentrations of voxelotor were determined using validated assays. […] The following PK parameters were determined. […] The lower limit of assay quantitation for voxelotor was 10.0 ng/mL for whole blood and 5.00 ng/mL in plasma.
result-type: Tmax
Please answer using a numeric value trailed by its unit.

## Input Hello, please tell me recorded Tmax for this one: CC(C)n1nccc1-c1ncccc1COc1cccc(O)c1C=O [voxelotor]
## Output 24 h

###

- method-summary: Protein binding in vitro
- Format: in vitro ADME
- Excerpt: Voxelotor apparent volume of distribution of the central compartment and peripheral compartment are 338 L and 72.2 L in plasma, respectively. Protein binding is 99.8% in vitro. The blood-to-plasma ratio is approximately 15:1 in patients with SCD.
result-type: fraction unbound
Just the number.

## Input Please list fraction unbound recorded for the compound `CC(C)n1nccc1-c1ncccc1COc1cccc(O)c1C=O`
## Output 0.002

###

- method-summary: Phase 1 study of a single oral dose of voxelotor in subjects with hepatic impairment: whole blood and plasma PK
- Format: in vivo, human
- condition-info: human, plasma, po, 1500 mg, plasma; moderate hepatic impairment; 1500 mg single oral dose; read-out: Cmax, GM (converted)
result-type: Cmax (ng/mL)
Only the number, expressed in ng/mL, is required.

## Input Quick one: give measured Cmax for `CC(C)n1nccc1-c1ncccc1COc1cccc(O)c1C=O`
## Output 2910

###

- method-summary: Phase 1 study of a single oral dose of voxelotor in subjects with hepatic impairment: whole blood and plasma PK
- Format: in vivo, human
- condition-info: human, plasma, po, 1500 mg, plasma; moderate hepatic impairment; 1500 mg single oral dose; read-out: t1/2, mean (converted)
result-type: half-life (h)
# number only, unit h dropped from output

## Input Specify measured half-life for CC(C)n1nccc1-c1ncccc1COc1cccc(O)c1C=O [voxelotor] .
## Output 90

###

- method-summary: Phase 1 study of a single oral dose of voxelotor in subjects with hepatic impairment: whole blood and plasma PK
- Format: in vivo, human
- condition-info: human, whole blood, po, 1500 mg, whole blood; mild hepatic impairment; 1500 mg single oral dose; read-out: Cmax, GM (converted)
result-type: Cmax (µg/mL)
Reply numerically in µg/mL, unit not repeated.

## Input Please report the measured Cmax for `CC(C)n1nccc1-c1ncccc1COc1cccc(O)c1C=O`
## Output 73.6

###

- method-summary: Phase 1 study of a single oral dose of voxelotor in subjects with hepatic impairment: whole blood and plasma PK
- Type: in vivo, human
- condition-info: human, whole blood, po, 1500 mg, whole blood; mild hepatic impairment; 1500 mg single oral dose; read-out: Vz/F, GM (converted)
result-type: Vd/F (L)
Just the number please, in L, no unit attached.

## Input Specify reported Vd/F for the compound shown: `CC(C)n1nccc1-c1ncccc1COc1cccc(O)c1C=O`
## Output 15.8
